assay: Unbound clearance in C57BL mouse at 10 mg/kg, po or 2 mg/kg, iv; type: ADME, organism-based; conditions: in vivo
OBSERVED PROPERTY: CL free (mL/min/kg)
Number only, in mL/min/kg; omit the unit.

query: Which value of CL free has been reported for CCn1c(CO)nn(-c2cc3c(C(C)C)nn(-c4ccccc4C)c(=O)c3cc2F)c1=O in the records?
result: 40.7

query: Please report the recorded CL free for CCn1c(CO)nn(-c2cc3c(C(C)C)cc(-c4ccccc4C)c(=O)n3cc2F)c1=O .
result: 245

query: Entry under review: CCn1c(CO)nn(-c2cc3c(C(C)C)nn(-c4c(F)cccc4Cl)c(=O)c3cc2F)c1=O . Reported CL free?
result: 144

query: Could you share which CL free value was measured for CCn1c(CO)nn(-c2cc3c(C(C)C)cn(-c4ccccc4C)c(=O)c3cc2F)c1=O ?
result: 41.4

* * *

assay: Solubility of compound in SGF at pH 1; type: physicochemical
Could you please report measured solubility at 24 h for the items listed next?
Report as a plain number; the unit µg/mL is understood.

query: Fill blank: measured solubility at 24 h of the compound CCn1c(CO)nn(-c2cc3c(C(C)C)cc(-c4ccccc4C)c(=O)n3cc2F)c1=O is ____.
result: 43

query: Give its solubility at 24 h value. Item: CCn1c(CO)nn(-c2cc3c(C(C)C)nn(-c4ccccc4C)c(=O)c3cc2F)c1=O
result: 78

query: # get_value(readout='solubility at 24 h', item= CCn1c(CO)nn(-c2cc3c(C(C)C)cn(-c4ccccc4C)c(=O)c3cc2F)c1=O )
result: 25

* * *

Please respond with reported half-life for every item in the list.
assay: Half life in C57BL mouse at 10 mg/kg, po or 2 mg/kg, iv; type: ADME, organism-based; details: in vivo
The reply should contain only the number, in h.

query: Given CCn1c(CO)nn(-c2cc3c(C(C)C)cn(-c4ccccc4C)c(=O)c3cc2F)c1=O , state its recorded half-life.
result: 5.68

query: Find the recorded half-life belonging to CCn1c(CO)nn(-c2cc3c(C(C)C)nn(-c4ccccc4C)c(=O)c3cc2F)c1=O and report it.
result: 4.55

query: Recorded half-life of CCn1c(CO)nn(-c2cc3c(C(C)C)cc(-c4ccccc4C)c(=O)n3cc2F)c1=O , please.
result: 4.03

query: Name the reported half-life value associated with the compound CCn1c(CO)nn(-c2cc3c(C(C)C)nn(-c4c(F)cccc4Cl)c(=O)c3cc2F)c1=O
result: 5.02

* * *

test: Tmax in C57BL mouse at 10 mg/kg, po or 2 mg/kg, iv; format: ADME, organism-based; details: in vivo
OBSERVED PROPERTY: Tmax (h)
The answer is to be given in h; state only the numeric part.

query: Using the record for CCn1c(CO)nn(-c2cc3c(C(C)C)cc(-c4ccccc4C)c(=O)n3cc2F)c1=O , report its Tmax.
result: 0.67

query: Entry under review: CCn1c(CO)nn(-c2cc3c(C(C)C)nn(-c4c(F)cccc4Cl)c(=O)c3cc2F)c1=O . Reported Tmax?
result: 1.67

query: I'd like to know its Tmax. The molecule in question is CCn1c(CO)nn(-c2cc3c(C(C)C)cn(-c4ccccc4C)c(=O)c3cc2F)c1=O
result: 1.67

query: Form field: reported Tmax of CCn1c(CO)nn(-c2cc3c(C(C)C)nn(-c4ccccc4C)c(=O)c3cc2F)c1=O
result: 0.83

src = ChEMBL document CHEMBL6083217
